test: Toxicity liver stage against HepG2, at 10uM; type: cell-based; design: test concentration 10 uM, cell line HepG2-A16-CD81EGFP; details: human, HepG2-A16-CD81EGFP cells; read-out: INHIBITION
METRIC: cytotoxicity at 10 µM

Some entries whose results are on file:
- COMPOUND: "COc1nn(C)c2c1CCCN(C(=O)c1cccn1C)C2"
  METRIC: "cytotoxicity at 10 µM"
  RESULT: "1.53%"
- COMPOUND: "O=c1c(S(=O)(=O)N2CCCC2)cccn1Cc1ccc(F)cc1Cl"
  METRIC: "cytotoxicity at 10 µM"
  RESULT: "12%"

Next:
What does the record list as cytotoxicity at 10 µM for O=C(Nc1nc2c(s1)CCC2)NC1CCCC1 ? -8.6%

These entries and their values trace back to ChEMBL document CHEMBL4513216.
